Reference source for all entries: patent US20090143279A1

# System: mtOXPHOS transcripts
# Assay type: cell-based, mouse
# ASSAY_CONDITIONS: Conc 20 μM; normalized score vs mock-treated (DMSO) wells
QUANTITY: mitoOX (composite Z-score)

* CC(C)CCC[C@@H](C)[C@H]1CC[C@H]2[C@@H]3C[C@@H](O)[C@@]4(O)C[C@@H](O)CC[C@]4(C)[C@H]3CC[C@]12C | 0.074
* CC1=CC(=O)C2=C(C)C[C@H](O)[C@@H]3[C@H](OC(=O)[C@H]3C)[C@H]12 | 0.349
* OC[C@H]1O[C@@H](Oc2cc(O)cc(/C=C/c3ccc(O)cc3)c2)[C@H](O)[C@@H](O)[C@@H]1O | 0.124
* C/C=C(/C)C(=O)O[C@H]1Cc2c(ccc3ccc(=O)oc23)OC1(C)C | −0.285

---

# System: C2C12 myotubes
Entry flag: Criterion met if Viability reaches -0.9; Criterion not met if it does not.

* CO/N=C(\C(=O)N[C@@H]1C(=O)N2C(C(=O)O)=C(CSc3nc(=O)c(=O)[nH]n3C)CS[C@H]12)c1csc(N)n1 | Criterion met
* CNC[C@H](O)c1cccc(O)c1 | Criterion met
* CCOC(=O)N1CCC(=C2c3ccc(Cl)cc3CCc3cccnc32)CC1 | Criterion met
* CCCCC(CC)CNC(=N)NC(=N)NCCCCCCNC(=N)NC(=N)NCC(CC)CCCC (centres unmarked) | Criterion not met

---

# Tested on: mtOXPHOS transcripts
# Assay type: cell-based, mouse
# ASSAY_CONDITIONS: normalized composite Z-score vs mock-treated (DMSO) wells; Conc 20 μM
Lab note: compare mitoOX against 0.06. Equal or greater, write Fulfilled. Smaller, write Not fulfilled.

- C[C@H](CCC(=O)O)[C@H]1CC[C@H]2[C@@H]3CCC4CCCC[C@]4(C)[C@H]3C=C[C@]12C (stereo partly shown) [chol-11-enic acid]: Fulfilled
- CC(C)=CC1C(CO)C1(C)C (stereo not shown) [chrysanthemyl alcohol]: Fulfilled
- COc1ccc(-c2cc(=O)c3c(O)c(OC)c(O[C@@H]4O[C@H](CO[C@@H]5O[C@@H](C)[C@H](O)[C@@H](O)[C@H]5O)[C@@H](O)[C@H](O)[C@H]4O)cc3o2)cc1 [pectolinarin]: Not fulfilled
- COC(=O)C[C@H]1C(C)(C)[C@@H](O)[C@@H]2CC3=C4CC(O)O[C@@H](c5ccoc5)[C@]4(C)CCC3[C@@]1(C)C2=O (stereo partly drawn) [3,16-dideoxymexicanolide-3beta-diol]: Not fulfilled
- COc1c2c(cc3occ(-c4ccc5c(c4)OCO5)c(=O)c13)OC(C)(C)C=C2 [methyl robustone, reference compound]: Not fulfilled
- Cc1cc(=O)c2c(O)c3c(cc2o1)OCC(C)CC3 (stereo not shown) [dihydroptaeroxylin]: Not fulfilled
- COc1cc(OC)c2c(c1)O[C@H](c1ccc(OC)c(OC)c1)[C@@H](O)C2 [catechin tetramethylether]: Not fulfilled
- COc1ccc2c(=O)c(CC(=O)O)coc2c1 [anhydrobrazilic acid, reference compound]: Fulfilled
- COc1cccc(C=CC(=O)O)c1C(C)C [2-isopropyl-3-methoxycinnamic acid]: Fulfilled

---

# Tested on: cellular dehydrogenase activity
# ASSAY_CONDITIONS: composite Z-score vs DMSO; Conc 20 μM
QUANTITY: MTT

* COc1ccc2c(c1)C1(C)CCC(O)CC1CC2 (centres unmarked) | −2.017
* C[C@@H]1C[C@H]2CC(=O)[C@H]3CCCN4CCC[C@H]2[C@]34C1 [lycopodine] | −1.139
* NCCc1ccc(S(=O)(=O)F)cc1 [4-aminoethylbenzenesulfonyl fluoride] | −1.406
* CC(=O)c1cc(CC=C(C)C)c(O)c(CC=C(C)C)c1 [3,5-diprenyl-4-hydroxyacetophenone] | −0.582
* C=C1C(=O)O[C@@H]2C[C@@]3(C)CCC[C@H](C)C3=C[C@H]12 [helenine] | −6.498
* Cc1cc(O)c2c(c1O)C(=O)c1c(O)cc(C)c(O)c1C2=O [reference compound] | −0.344
* C[C@H](CCC(=O)O)[C@H]1CC[C@H]2[C@@H]3CC[C@H]4C[C@H](O)CC[C@]4(C)[C@H]3C[C@H](O)[C@]12C [allodeoxycholic acid] | −2.126
* O=C1CC[C@]23/C=C/C(=O)NCCCCNCCCNC(=O)/C=C/c4ccc(c2c4)O[C@@H]3C1 [lunarine] | −0.938
